These entries and their values trace back to patent US10940139B2.

system: KRas G12D mutant protein (Homo sapiens (Human), UniProt P01116, G12D)
Sequence (P01116-2 other isoform, or with tags, fused parts or gaps G12D): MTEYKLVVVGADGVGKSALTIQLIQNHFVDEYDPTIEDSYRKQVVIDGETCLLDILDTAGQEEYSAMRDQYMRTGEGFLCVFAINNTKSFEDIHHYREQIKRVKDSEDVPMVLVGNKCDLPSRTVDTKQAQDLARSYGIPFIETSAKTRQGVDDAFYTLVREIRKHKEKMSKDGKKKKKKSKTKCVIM
procedureText: Ras GTP binding domain inhibition assay (labeled GTP)
testSettings: 20 μM compound; read-out: % Inhibition at 20 μM KRas G12D
For each entry below, report its inhibition at 20 µM value.

// worked examples, inhibition at 20 µM included
{"columns": ["compound", "inhibition at 20 µM"],
 "data": [
  ["Oc1nc(-c2ccccn2)nc2c(-c3ccccn3)csc12 [drawing 2896]", "25 to 50%"],
  ["CN1CCN(c2nc(-c3ccccn3)nc3scc(C(=O)NCCc4cnc(O)nc4)c23)CC1 [drawing 2899]", "51 to 75%"],
  ["COc1cccc(C2CN(C(=O)c3csc4c(O)nc(-c5ccccn5)nc34)CCN2)c1 (stereo not shown) [drawing 2773]", "51 to 75%"]
]}

In the following, a different compound is considered.
What the record says about OCC1(c2ccc(-c3csc4c(O)nc(-c5ccccn5)nc34)cc2)CC1 [drawing 2886] : inhibition at 20 µM is 76 to 100%

----------
system: KRas Q61H mutant (Homo sapiens (Human), UniProt P01116, Q61H)
Sequence (P01116-2 other isoform, or with tags, fused parts or gaps Q61H): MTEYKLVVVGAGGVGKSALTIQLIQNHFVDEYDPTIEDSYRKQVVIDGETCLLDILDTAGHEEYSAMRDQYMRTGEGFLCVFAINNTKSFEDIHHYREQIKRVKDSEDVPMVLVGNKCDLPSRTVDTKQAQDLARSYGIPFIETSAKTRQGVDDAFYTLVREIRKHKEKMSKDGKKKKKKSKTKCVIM
procedureText: Ras GTP binding domain inhibition assay (labeled GTP)
testSettings: 20 μM compound; read-out: % Inhibition at 20 μM KRas Q61H
For each entry below, report its inhibition at 20 µM value.

{"columns": ["compound", "measurement"],
 "data": [
  ["O=S1(=O)CCN(Cc2cccc(-c3csc4c(O)nc(-c5ccccn5)nc34)c2)CC1 [drawing 2864]", "51 to 75%"],
  ["Oc1nc(-c2ccccn2)nc2c(-c3cc(Cl)cc(Cl)c3)csc12 [drawing 2848]", "25 to 50%"],
  ["COC(=O)c1cc2nc(-c3ccccn3)nc(O)c2s1 [drawing 2907]", "51 to 75%"],
  ["O=C(c1csc2c(O)nc(-c3ccccn3)nc12)N1CCNC(Cc2cccc(F)c2)C1 (stereo not drawn) [drawing 2832]", "51 to 75%"],
  ["O=C(O)c1cc2nc(-c3ccccn3)nc(O)c2s1 [drawing 2850]", "51 to 75%"],
  ["O=C(NCCc1cccnc1)c1cc2nc(-c3ccccn3)nc(O)c2s1 [drawing 2843]", "51 to 75%"]
]}

Dear colleague, could you please provide inhibition at 20 µM for the compounds listed below?
1. Cc1ccc(OC2CCCC2)c(-c2csc3c(O)nc(-c4ccccn4)nc23)c1 [drawing 2844]
2. COc1cc(C)c(-c2csc3c(O)nc(-c4ccccn4)nc23)cc1C [drawing 2869]
3. O=C(c1csc2c(O)nc(-c3ccccn3)nc12)N1CCNC(Cc2ccc(F)cc2)C1 (stereo not drawn) [drawing 2831]

51 to 75%
1 to 25%
51 to 75%

----------
system: KRas G12D/Q61H double mutant (Homo sapiens (Human), UniProt P01116, G12D/Q61H)
Sequence (P01116-2 other isoform, or with tags, fused parts or gaps G12D/Q61H): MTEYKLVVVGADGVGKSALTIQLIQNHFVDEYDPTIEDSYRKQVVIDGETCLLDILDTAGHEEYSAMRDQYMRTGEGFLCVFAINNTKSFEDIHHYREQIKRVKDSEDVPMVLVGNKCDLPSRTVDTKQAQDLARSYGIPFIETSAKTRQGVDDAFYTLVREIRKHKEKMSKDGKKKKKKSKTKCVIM
procedureText: Ras GTP binding domain inhibition assay (labeled GTP)
testSettings: 20 μM compound; read-out: % Inhibition at 20 μM KRas G12D Q61H
readoutType: inhibition at 20 µM

// worked examples, inhibition at 20 µM included
{"columns": ["compound", "inhibition at 20 µM"],
 "data": [
  ["O=c1[nH]c(-c2cnc(Oc3ccccc3)cn2)nc2ccsc12", "1 to 25%"],
  ["FC(F)(F)c1cccc(N2CCN(c3ncnc4sccc34)CC2)c1", "1 to 25%"],
  ["Cc1ccc(OCCSc2nnc(C(C)Oc3ccc(F)cc3)o2)cc1 (centres unmarked)", "25 to 50%"]
]}

Dear colleague, could you please provide inhibition at 20 µM for the compounds listed below?
1. O=C(NCC(=O)N1CCN(C2CC3CCC2C3)CC1)c1ccccn1 (centres unmarked)
2. COc1c(C)cnc(CN2CCCCC2c2ncc[nH]2)c1C (centres unmarked)
3. Cc1ccc(-c2nnc(C(C)N3CCCc4ccccc43)o2)cc1 (centres unmarked)
4. Cc1nc(CC(=O)Nc2nnc(-c3ccccn3)[nH]2)cs1
5. Brc1csc2nc(-c3ccccn3)nc(N3CCOCC3)c12 [drawing 2701]

25 to 50%
25 to 50%
1 to 25%
25 to 50%
1 to 25%

----------
For each entry below, report its IC50 value.
system: KRas G12D/Q61H double mutant (Homo sapiens (Human), UniProt P01116, G12D/Q61H)
procedureText: Ras GTP binding domain inhibition assay (labeled GTP)
testSettings: serial dilution; read-out: KRas G12D Q61H (classes E-H, IC50)

{"columns": ["compound", "readoutType", "measurement"],
 "data": [
  ["O=C(c1csc2c(O)nc(-c3ccccn3)nc12)N1CCOC(c2ccccc2Cl)C1 (centres unmarked) [drawing 2769]", "IC50", "5 to 10 µM"],
  ["Oc1nc(-c2ccccn2)nc2sccc12 [drawing 2704]", "IC50", "11 to 30 µM"]
]}

Dear colleague, could you please provide IC50 for the compounds listed below?
1. COc1ccnc(-c2nc(O)c3ccsc3n2)c1 [drawing 2708]
2. O=C(c1csc2c(O)nc(-c3ccccn3)nc12)N1CCN(c2ccc(O)c(Cl)c2)CC1 [drawing 2803]
3. N#Cc1ccc(COCC(=O)Nc2nc(-c3ccccn3)nc3sccc23)cc1 [drawing 2799]
4. CC1CN(c2ccccc2)CCN1C(=O)c1csc2c(O)nc(-c3ccccn3)nc12 (centres unmarked) [drawing 2761]

1: 5 to 10 µM; 2: 11 to 30 µM; 3: 11 to 30 µM; 4: 5 to 10 µM

Dear colleague, could you please provide IC50 for the compounds listed below?
1. COc1ccccc1C1CN(C(=O)c2csc3c(O)nc(-c4ccccn4)nc23)CCO1 (centres unmarked) [drawing 2767]
2. O=C(c1csc2c(O)nc(-c3ccccn3)nc12)N1CCN(Cc2cccc(O)c2)CC1 [drawing 2726]
3. O=C(c1csc2c(O)nc(-c3ccccn3)nc12)N1CCOC(c2nccs2)C1 (centres unmarked) [drawing 2734]

11 to 30 µM
11 to 30 µM
5 to 10 µM

Dear colleague, could you please provide IC50 for the compounds listed below?
1. O=C(c1csc2c(O)nc(-c3ccccn3)nc12)N1CCNC(c2ccc(O)cc2)C1 (centres unmarked) [drawing 2808]
2. COc1cccc(C2CN(C(=O)c3csc4c(O)nc(-c5ccccn5)nc34)CCN2)c1 (centres unmarked) [drawing 2773]
3. COc1ccnc(-c2nc(O)c3c(Cl)csc3n2)c1 [drawing 2800]
4. CN(C)Cc1ccc(F)c(-c2csc3c(O)nc(-c4ccccn4)nc23)c1 [drawing 2901]
5. CS(=O)(=O)c1cccc(C(=O)N2CCCc3c(O)nc(-c4ccccn4)nc32)c1 [drawing 2647]

1. 5 to 10 µM
2. 11 to 30 µM
3. 11 to 30 µM
4. 11 to 30 µM
5. 5 to 10 µM

Dear colleague, could you please provide IC50 for the compounds listed below?
1. CC(c1ccccc1)N1CCN(C(=O)c2csc3c(O)nc(-c4ccccn4)nc23)CC1 (centres unmarked) [drawing 2804]
2. CCn1nc(C)cc1-c1csc2c(O)nc(-c3ccccn3)nc12 [drawing 2903]

1: 11 to 30 µM; 2: 11 to 30 µM

----------
system: KRas G12D/Q61H double mutant (Homo sapiens (Human), UniProt P01116, G12D/Q61H)
procedureText: Ras GTP binding domain inhibition assay (labeled GTP)
testSettings: 20 μM compound; read-out: % Inhibition at 20 μM KRas G12D Q61H
readoutType: inhibition at 20 µM

{"columns": ["molecule", "measurement"],
 "data": [
  ["CC(=O)N1CCC(Nc2nc(-c3ccccn3)nc3c2CCC3)C1 (stereo not drawn)", "25 to 50%"]
]}

Dear colleague, could you please provide inhibition at 20 µM for the molecules listed below?
1. O=C(c1csc2c(O)nc(-c3ccccn3)nc12)N1CCNC(c2ccccc2)C1 (stereo not drawn)
2. Cc1ccc(CN(C(=O)c2cc(-c3ccccc3Cl)[nH]n2)C2CC2)o1
3. CC(C)c1ccc2nc(-c3ccccn3)[nH]c(=O)c2c1
4. CN(Cc1ccc(C(F)(F)F)cc1)Cc1cc([N+](=O)[O-])cc2c1OCOC2
5. CN(CC(=O)N1CCOCC1)C(=O)c1ccc(COc2ccc(F)cc2)o1

25 to 50%
1 to 25%
25 to 50%
1 to 25%
1 to 25%

----------
system: KRas wild type (Homo sapiens (Human))
Sequence (P01116-2 other isoform, or with tags, fused parts or gaps): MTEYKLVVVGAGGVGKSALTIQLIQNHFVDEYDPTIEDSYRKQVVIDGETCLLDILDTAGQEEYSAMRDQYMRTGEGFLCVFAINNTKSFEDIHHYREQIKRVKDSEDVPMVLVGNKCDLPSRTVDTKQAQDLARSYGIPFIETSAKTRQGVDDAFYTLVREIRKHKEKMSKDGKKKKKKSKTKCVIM
procedureText: Ras GTP binding domain inhibition assay (labeled GTP)
testSettings: 20 μM; read-out: KRas wild type, % Inh.
readoutType: inhibition at 20 µM

// worked examples, inhibition at 20 µM included
{"columns": ["compound", "inhibition at 20 µM"],
 "data": [
  ["Cc1sc2nc(-c3ccccn3)nc(NCCCO)c2c1-c1ccccc1 [drawing 2610]", "25 to 50%"],
  ["Cc1cc2c(=O)nc(-c3cc(OCC(F)F)ccn3)[nH]c2s1 [drawing 2593]", "25 to 50%"],
  ["O=C(Nc1nc(-c2ccccn2)cs1)c1ccccn1 [drawing 2573]", "51 to 75%"],
  ["COCC(C)Nc1nc(-c2ccccn2)nc2sc(C)c(-c3ccccc3)c12 (stereo not drawn) [drawing 2604]", "25 to 50%"],
  ["CC(O)CNc1nc(-c2ccccn2)nc2scc(-c3ccccc3)c12 (stereo not drawn) [drawing 2607]", "25 to 50%"],
  ["O=C(Nc1nnc(-c2ccccn2)[nH]1)c1ccn(-c2cccc(Cl)c2)n1 [drawing 2559]", "25 to 50%"],
  ["CS(=O)(=O)Cc1ccc(C(=O)Nc2nc(-c3ccccn3)cs2)cc1 [drawing 2572]", "1 to 25%"],
  ["O=C(Nc1nnc(-c2ccccn2)[nH]1)c1ccc2ccccc2n1 [drawing 2472]", "51 to 75%"]
]}

In the following, a different compound is considered.
What the record says about COc1ccc(OCc2nc(CNCCc3nnc4n3CCC4)cs2)cc1 [drawing 2565] : inhibition at 20 µM is 1 to 25%
